Measured MIC, listed per entry.
system: Mycolicibacterium smegmatis; test: Antimicrobial activity against Mycobacterium smegmatis by microdilution method; format: functional
A number alone suffices; assume µg/mL.

Examples with answers:
1) Oc1ccc([C@@H]2c3c(O)cc(O)cc3[C@@H]3c4c(cc(O)cc4[C@H]2[C@H]2c4cc(O)cc5c4[C@@H](c4cc(O)cc(O)c4[C@@H]2c2ccc(O)cc2)[C@H](c2ccc(O)cc2)O5)O[C@H]3c2ccc(O)cc2)cc1 [HOPEAPHENOL A]; 50
2) NNC(=O)c1ccncc1 [ISONIAZID]; 0.8

Now, please, on to the next molecule.
Inquiry: Query: MIC; subject: Oc1ccc([C@@H]2c3c(O)cc(O)cc3[C@@H]3c4c(cc(O)c5c4[C@@H]2[C@H](c2ccc(O)cc2)[C@H]5c2cc(O)cc4c2[C@H](c2cc(O)cc(O)c2)[C@@H](c2ccc(O)cc2)O4)O[C@H]3c2ccc(O)cc2)cc1 [VATICAPHENOL A]
Reply text: 25
